# assayMethodText: Pseudomonas biofilm growth suppression – PAO1 strain, BacTiter-Glo luminescence, LB-PBS, primary screen (AID 1144)
# assayContext: P. aeruginosa PAO1 biofilm, 12 h, higher = more signal
# binarize z-score: threshold -0.02 inclusive, high side Criterion met, low side Criterion not met

molecule	qualitativeLabel
CCCC=C(CCC)[C@@H](NS(=O)(=O)c1ccc(Cl)cc1)c1ccc(C(=O)OC)cc1	Criterion not met
COCC(=C=CC[C@H](O)c1cccc(OCCO)c1)C[C@H](O)c1cc(Cl)cc(Cl)c1O	Criterion not met
NCCCCCNC(=O)[C@H]1C[C@H]2C(=O)N3CCC[C@H]3C(=O)N2[C@H]1c1ccc(O)cc1	Criterion not met
COCCCNC(=O)[C@@]1(CCS(=O)(=O)c2ccccc2)N=C(c2ccc(OCCCO)cc2)O[C@H]1c1ccccc1N=[N+]=[N-]	Criterion not met
COC(=O)[C@@]1(Cc2ccc(OC)cc2)[C@H]2c3cc(C(=O)N4CCCC4)n(CCCNc4ncc(C(F)(F)F)cc4Cl)c3C[C@H]2CN1C(=O)c1ccccc1	Criterion met
C=CC[C@]1(C(=O)N2CCOCC2)N=C(c2ccc(OCCCO)cc2)O[C@H]1c1ccccc1N=[N+]=[N-]	Criterion met
COC(=O)[C@@]1(Cc2ccc(OC)cc2)[C@H]2c3cc(C(=O)N4CCCC4)n(Cc4nc5ccccc5[nH]4)c3C[C@H]2CN1C(=O)c1ccccc1	Criterion met
O=C1C2C=CC(C(O)C=Cc3ccc([N+](=O)[O-])cc3)N(Nc3ccccc3F)C2C(=O)N1c1ccccc1 (configuration not stated)	Criterion met
O=C1OCC=C[C@H]2OC34C=CCN(Cn5nnc6ccccc65)C(=O)[C@H]3N(CCCCCO)C(=O)[C@@H]4[C@@H]12 (some centres not stated)	Criterion not met
O=C1O[C@H](c2ccccc2)[C@H](c2ccccc2)N2[C@H]1[C@@H](C(=O)NC[C@H](O)c1ccccc1)[C@]1(C(=O)Nc3ccc(C#CC4=CCCCC4)cc31)[C@H]2c1ccccc1OCCO	Criterion not met
O=C1O[C@@H](c2ccccc2)[C@@H](c2ccccc2)N2[C@@H](c3ccc(OCCO)cc3)[C@]3(C(=O)Nc4ccc(C#CCCO)cc43)[C@@H](C(=O)NC[C@H](O)c3ccccc3)[C@H]12	Criterion not met
CC(C)NC(=O)[C@@]1(Cc2ccccc2I)c2ccccc2C(=O)N(Cc2ccccc2Cl)[C@H]1c1ccc(CO)cc1	Criterion met
[N-]=[N+]=NCc1ccccc1[C@@H]1OC(c2ccc(OCCCO)cc2)=N[C@]1(CCS(=O)(=O)c1ccccc1)C(N)=O	Criterion met
COc1ccc(NC(=O)O[C@H]2[C@H](OC(=O)c3cc4ccccc4[nH]3)[C@@H](OC(=O)c3cc4ccccc4[nH]3)[C@@H](OC)O[C@@H]2CO)cc1	Criterion not met
COC(=O)c1c2oc(c1C(=O)OC)C(=O)N[C@@H](C(C)C)Cn1cc(nn1)C1(CCCCC1)NC(=O)N[C@H](CO)CC2	Criterion not met
C=CCNC(=O)[C@@H]1[C@H]2C(=O)O[C@H](c3ccccc3)[C@H](c3ccccc3)N2[C@H](c2ccc(OCCO)cc2)[C@@]12C(=O)N(C(=O)OCCOC)c1ccc(C#CCC(C(=O)OC)C(=O)OC)cc12	Criterion met
COc1ccc([Si](C)(C)[C@@H]2[C@@H](CCn3cc([C@H](O)c4ccccc4)nn3)O[C@]3(C(=O)N(Cc4cccc(N5CCC5=O)c4)c4ccccc43)[C@H]2C)cc1	Criterion not met
CO[C@H]1O[C@H](CO)[C@@H](OC(=O)Nc2ccccc2)[C@@H]2OC(=O)[C@@H](Cc3ccc4ccccc4c3)C/C=C/C[C@H](Cc3ccc4ccccc4c3)C(=O)O[C@@H]12	Criterion not met
CC#CC(=O)Oc1ccc(Br)cc1C=CC(=O)OCC	Criterion met
C=C[C@H](C)[C@@H](OC(=O)Nc1ccc(SC)cc1)c1ccc(O)c2ccccc12	Criterion not met
COc1ccc([C@H]2C[C@H]3C(I)=C[C@@H]2C(=O)[C@]32CO2)cc1	Criterion not met
[N-]=[N+]=Nc1ccccc1C[C@@]1(C(=O)N2CCCCC2)N=C(c2ccc(OCCCO)cc2)O[C@@H]1c1ccccc1	Criterion not met
COCCOC(=O)N1C(=O)[C@@]2(c3ccccc31)[C@H](C(=O)N1CCc3cc(OC)c(OC)cc3C1)[C@H]1C(=O)O[C@H](c3ccccc3)[C@H](c3ccccc3)N1[C@@H]2c1ccc(O)cc1	Criterion not met
CN(C)C(=O)[C@]1(Cc2ccccc2)N=C(c2ccc(OCCCO)cc2)O[C@@H]1c1ccccc1N=[N+]=[N-]	Criterion met
C[C@H]1C2[C@H](Cc3ccccc3)NC(=O)[C@]23C(=O)NCC(=O)N2CCC[C@H]2C(=O)NC/C=C/CCC/C=C/C3[C@@H]2O[C@]12C (some centres not stated)	Criterion met
CC(C)CCC[C@@H](C)[C@H]1CC[C@@]2(C)C3=C(CC[C@]12C)[C@@]1(C)CC[C@H](OC(=O)c2ccc(C(F)(F)F)nc2)C(C)(C)C1CC3 (some centres not stated)	Criterion not met
CCOC(=O)[C@H]1C/C=C/C[C@H](C(=O)OCC)C(=O)O[C@H]2[C@@H](OC)O[C@H](CO)[C@@H](OC(=O)c3ccc(Br)cc3)[C@@H]2OC1=O	Criterion not met
